Target: Human Recombinant Matriptase 2 (Homo sapiens, UniProt Q8IU80)
Construct: made in house
Sequence (Q8IU80 1-811): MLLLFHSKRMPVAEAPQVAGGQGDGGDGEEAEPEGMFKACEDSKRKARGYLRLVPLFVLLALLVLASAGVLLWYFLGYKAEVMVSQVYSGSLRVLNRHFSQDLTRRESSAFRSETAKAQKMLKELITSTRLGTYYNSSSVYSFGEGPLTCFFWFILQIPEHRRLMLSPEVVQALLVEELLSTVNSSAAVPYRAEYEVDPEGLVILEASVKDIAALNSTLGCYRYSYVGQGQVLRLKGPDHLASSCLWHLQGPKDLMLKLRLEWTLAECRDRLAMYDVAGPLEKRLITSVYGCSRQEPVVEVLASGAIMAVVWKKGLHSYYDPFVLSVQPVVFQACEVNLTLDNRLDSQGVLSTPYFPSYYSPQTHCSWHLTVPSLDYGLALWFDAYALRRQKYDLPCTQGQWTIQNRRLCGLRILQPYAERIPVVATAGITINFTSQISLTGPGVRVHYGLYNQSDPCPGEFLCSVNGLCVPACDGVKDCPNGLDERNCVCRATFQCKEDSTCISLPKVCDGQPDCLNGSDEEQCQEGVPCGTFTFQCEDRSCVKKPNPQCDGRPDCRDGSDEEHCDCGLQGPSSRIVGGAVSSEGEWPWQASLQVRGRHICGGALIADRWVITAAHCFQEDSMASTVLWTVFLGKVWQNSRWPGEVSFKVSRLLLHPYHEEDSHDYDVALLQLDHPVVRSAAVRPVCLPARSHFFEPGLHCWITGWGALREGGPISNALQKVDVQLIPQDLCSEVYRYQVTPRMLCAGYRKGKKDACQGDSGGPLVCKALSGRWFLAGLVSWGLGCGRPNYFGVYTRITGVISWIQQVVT
Experiment: Matriptase 2 inhibition, fluorescence based assay (Method I)
Type: biochemical
Details: Table A; Ki of Matriptase-2; read-out: Mat-2 Ki
Reported Ki is given for each of the following compounds.

Some entries whose results are on file:
Compound | Ki
CN(C)CCCOC(=O)c1cc2ccc(CN)nc2n1Cc1cc(NS(=O)(=O)Cc2ccccc2)cc2ccccc12 | ≤ 100 nM
COCCN1CCCC(COC(=O)c2cc3ccc(CN)nc3n2Cc2cc(NS(=O)(=O)Cc3c(C)cccc3C)cc3ccccc23)C1 (racemic) | ≤ 100 nM

# input for lookup
Input: Output measured Ki for this item: C[C@H](OC(=O)c1cc2ccc(CN)nc2n1Cc1cc(NS(=O)(=O)Cc2ccccc2)cc2ccccc12)C1CCN(C)CC1 (racemic)
Output: ≤ 100 nM

Origin of measurements: patent US20240400553A1
